The measurements presented in this section are drawn from PubChem BioAssay.

TEST DETAILS: endothelial E-selectin expression blockers – imaging, HUVEC, immunofluorescence, MLSMR starter and 10KST1 sets, primary screen (AID 487);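 note: 100% = median nuclei count of all wells on the same plate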
ASSAY CONTEXT: HUVEC TNFalpha-induced E-selectin immunofluorescence imaging, at 2 µM; measured here: cell number, toxicity
nuclei count reference
Write the answer as a number in %, unit excluded.

Some compounds with known nuclei count results, for comparison:
| COMPOUND | UNIT ABBREV | nuclei count |
| --- | --- | --- |
| O=c1[nH]c(=O)n(Cc2ccccc2)c(O)c1C=NCCCO | % | 128 |
| O=C1C2CCN(CC2)[C@@H]1Cc1ccc2ccccc2c1O | % | 135 |
| COc1ccccc1N1CCN(Cc2c(F)cccc2F)CC1 | % | 118 |
| COC(=O)CC1(Cc2ccccc2)C(=O)NC(=O)NC1=O | % | 140 |
| COc1ccc(OC)c(C2=NOC(C(=O)N3CCC4(CC3)OCCO4)C2)c1 (centres undefined) | % | 77.7 |
| O=c1[nH]c2ccccc2c(=O)n1-c1cccc(Cl)c1 | % | 129 |
| CCCCSP1(=S)NCCCN1 | % | 139 |
| c1ccc2c3c([nH]c2c1)CNCC3 | % | 114 |

Can you share its nuclei count? I mean this compound: CC(C)[C@@]1(NC(=O)[C@@H]2C[C@@H]3c4cccc5[nH]cc(c45)C[C@H]3N(C)C2)O[C@@]2(O)[C@@H]3CCCN3C(=O)[C@H](Cc3ccccc3)N2C1=O 113

Now try CCCCNC(=O)c1c(N)n(CCCOC)c2nc3ccccc3nc12 . 111

Same thing, different compound: CCOC(=O)C(O)(c1ccc(N(CC)C(=O)OC)cc1)C(F)(F)F (centres undefined) 111

Let us now turn to O=C(Nc1ccncc1)c1c(O)c2ccccc2n(Cc2ccccc2)c1=O 145

Next: O=c1[nH]c(=O)n(-c2cccc(Cl)c2)c(O)c1C=NCCN1CCCCC1 143

====

TEST DETAILS: inhibitors of TNFa-induced NFkB p65 translocation, primary screen, imaging, HUVEC, MLSMR starter and 10KST1 sets (AID 438);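 note: compound added about 3h40 before a 20 min TNFalpha stimulation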
ASSAY CONTEXT: HUVEC TNFa-induced p65 nuclear translocation; measured here: nuclei count (cytotoxicity indicator), at 2.08 µM
MEASURE NAME: cell count
Just the number.

Field: example entries. Status: answers known.
| MOLECULE | MEASURE NAME | REPORTED |
| --- | --- | --- |
| CN1C(=O)CN=C(c2ccc(Cl)cc2)c2cc(Cl)ccc21 | cell count | 702 |
| CCCCn1c(O)c(C(C)=NC(Cc2c[nH]c3ccccc23)C(=O)OC)c(=O)[nH]c1=O (centres undefined) | cell count | 536 |
| Nc1ccccc1C(=O)OC1CSC1 | cell count | 621 |
| Cc1ccc(-n2c(O)c(C=NCCN3CCOCC3)c(=O)[nH]c2=O)cc1 | cell count | 536 |
| CCCN(CC#CCO)CCC | cell count | 701 |
| Cn1c(=O)cc(OCC(=O)N2CCN(C3CCCCC3)CC2)c2ccccc21 | cell count | 535 |
| O=C1C2CCN(CC2)[C@@H]1Cc1ccc2ccccc2c1O | cell count | 542 |
| CN1CC[C@@]23CCCC[C@@H]2[C@@H]1Cc1ccc(O)cc13 | cell count | 612 |

Returns the measured cell count for the input molecule. Input: Cc1nc2ccccc2c(=O)n1-c1ccc(F)cc1 321

// query: Nc1c(C(=O)NCc2ccco2)c2nc3ccccc3nc2n1Cc1ccc(F)cc1 678

Now the same for CCCCOCCCn1c(N)c(C(=O)OCCOC)c2nc3ccccc3nc21 525

Cool, now COC(=O)C1C2c3ccccc3OC1(C)N=c1s/c(=C/c3cnn(C)c3C)c(=O)n12 (centres undefined) 469

How about CC1(C)Cc2c(sc3c2C(=O)NC(c2cccnc2)N3)CO1 (centres undefined) ? 328

====

TEST DETAILS: reduction of polyQ htt aggregates in cells – imaging, exon1htt(103Q)mCFP cells, high-content imaging, primary screen (AID 483);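 note: compound exposure lasted 3 days before fixation; percent of the per-plate median nuclei count of sample wells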
ASSAY CONTEXT: exon1htt(103Q)mCFP cell line, aggregate imaging, at 2 µM; measured here: cell count, toxicity
Each item that follows carries a reported nuclei count.
Respond with the bare value in %.

Completed entries (count: 3):
| MOLECULE | nuclei count (%) |
| --- | --- |
| NCC(CC(=O)O)c1ccc(Cl)cc1 (stereo not drawn) | 95.6 |
| CCCCCCn1c(O)c(C=NC2CCN(Cc3ccccc3)CC2)c(=O)[nH]c1=O | 112 |
| CCCCCCOc1ccc(CN2CCN(C)CC2)cc1 | 107 |

Given the entry CN1[C@@H]2CC[C@H]1CC(OC(=O)C1C=Nc3ccccc31)C2 (stereo partly drawn) , report its measured nuclei count. 99.6

Entry Cc1[nH]c2c(Cl)cccc2c1CCN please 86.5

Request: CC(C)C(=O)N1CCN(CCN=Cc2c(O)n(C)c(=O)n(C)c2=O)CC1 138

Would you mind doing CC(=NCc1ccc2c(c1)OCO2)c1c(O)n(C)c(=O)n(C)c1=O as well? 94.1

And the next one, Cc1cnn(C2CCN(C)CC2)c1N ? 75.4

Repeat with CCOc1cc2[nH]c(=S)n(CCCC(=O)N3CCC4(CC3)OCCO4)c(=O)c2cc1OCC 95.6

Also Cc1nc2ccccc2c(=O)n1-c1ccc(F)cc1 , if possible. 111

Same question for CCN1CCN(Cc2cc(Br)cc(OC)c2O)CC1 please. 99.4

Ok, now CCN(CC)CCN=Cc1c(O)n(CCC2=CCCCC2)c(=O)[nH]c1=O 94.9

Check Cc1ccccc1NC1=NCCCS1 too. 83.1

Now this one: COc1ccccc1/C=C1/C(=N/O)C2CCN1CC2 76.9

Here is the next molecule: CC(=NCc1cccnc1)c1c(O)n(Cc2ccccc2)c(=O)[nH]c1=O 120

Entry Cc1ccc(-n2c(O)c(C=NCCN3CCOCC3)c(=O)[nH]c2=O)cc1 please 117

Also O=C(Cn1cc(C(=O)c2ccccc2)c2ccccc21)NCc1ccco1 ? 89.8

Lookup CCC(COC(=O)c1cc(OC)c(OC)c(OC)c1)(c1ccccc1)N(C)C (stereo not drawn) 92.2

====

TEST DETAILS: loss of swimming-algae plug formation – whole organism, Chlamydomonas reinhardtii, WT vs cilia-less mutant, absorbance, 96-well, primary screen (AID 463189);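 note: 0% = wild type cc124 cells in DMSO and 100% = ciliumless bld1 mutant cells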
ASSAY CONTEXT: Chlamydomonas reinhardtii gravitaxis, OD600 absorbance, 2 days; at 10 µM
Activity calls are given as the source filed them.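 The calls were made as follows: active = inhibition at or above 50% relative to wild type and mutant plate controls; inactive = inhibition below 50%.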
Response enum: active, inactive

| COMPOUND | CLASS |
| --- | --- |
| CCCn1c(=O)c2[nH]c(C3CCCC3)nc2n(CCCOC(=O)c2ccc(S(=O)(=O)F)cc2)c1=O | inactive |
| C[N+](C)(C)CCOC(=O)CBr | inactive |
| O=c1[nH]c(=O)n(-c2cccc3ccccc23)c(O)c1C=NCCCn1ccnc1 | inactive |
| CCCCn1c(O)c(C=NCCN2CCCCC2)c(=O)[nH]c1=O | inactive |
| C[C@H](Cc1ccc2c(c1)OC(C(=O)O)(C(=O)O)O2)NC[C@H](O)c1cccc(Cl)c1 | inactive |
| O=C1NC(=O)C(C/C=C/c2ccccc2)C(=O)N1 | inactive |

// return assay outcome for CC1(c2ccccc2)NCCN2C(=O)CSC21 (centres undefined) inactive

====

TEST DETAILS: TLR3 IRF3 reporter activation blockers – cell-based, poly I:C stimulus, luciferase, 10K MLSCN set, primary screen (AID 602277)
ASSAY CONTEXT: HEK293-TLR3 RL24 IRF3 luciferase reporter, at 10 µM
Calls of active or inactive are those of the source.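 Rule for the calls: active = inhibition of the reporter signal at or above 50%; inactive = inhibition below 50%.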
Parameter call: string, one of 1 = active, 0 = inactive

Worked examples, 5 compounds total:
| COMPOUND | CLASS |
| --- | --- |
| CC(=O)N1CC(=O)Nc2ccc(Cl)cc2C1c1ccc(F)cc1 (stereo unspecified) | 0 |
| C(#CCN1CCOCC1)COCC#Cc1ccccc1 | 0 |
| C=CCn1c(O)c(C(C)=Nc2ccc(N(CC)CC)cc2)c(=O)[nH]c1=O | 0 |
| C[N+]1(C)CCN(c2ccccc2)CC1 | 1 |
| O=P(OCC(F)(F)C(F)F)(N1CCCCC1)N1CCCCC1 | 0 |

Answer briefly: the call reported for COc1ccc(CCn2c(O)c(C=NCCCN(C)C)c(=O)[nH]c2=O)cc1OC in this assay. 0

====

TEST DETAILS: Primary imaging screen for DUSP6 inhibitors that restore phospho-Erk in transfected HeLa cells, chemical complementation (AID 609)
ASSAY CONTEXT: HeLa MKP-3 transfected, phospho-Erk imaging KS statistic; measured here: nuclear pErk red intensity z-score; at 10 µM; stronger effect = higher value
Class assignment keyed on z-score, ranges low = under -0.3, medium = from -0.3 up to 0.7, high = 0.7 and over

Here are 5 molecules together with their reported answers.
| MOLECULE | CLASS |
| --- | --- |
| Cn1c(O)c(C=NCCCNC2CCCCC2)c(=O)n(C)c1=O | low |
| CCCCCCn1c(O)c(C(C)=NC)c(=O)[nH]c1=O | high |
| C/C(Cl)=C/CC1(CN2CCCC2=O)C(=O)NC(=O)NC1=O | medium |
| CC(C)[C@H]1C(=O)N2CCC[C@H]2[C@]2(O)O[C@](NC(=O)[C@@H]3C=C4c5cccc6[nH]cc(c56)C[C@H]4N(C)C3)(C(C)C)C(=O)N12 | medium |
| C[C@H]1CCC/C=C/C2C[C@H](O)CC2[C@H](O)/C=C/C(=O)O1 (stereo not given in full) | medium |

Class? Entry: Cc1c(N=Cc2c(O)n(CCc3ccc(F)cc3)c(=O)[nH]c2=O)c(=O)n(-c2ccccc2)n1C high

Another molecule to check: Nc1c(C(=O)NCc2ccco2)c2nc3ccccc3nc2n1CCN1CCCCC1 medium

Follow-up entry: COc1ccc2[nH]cc(CCN(C)C)c2c1 medium
